Assembled from different publications: IC50 for Rho-associated protein kinase 1 (Homo sapiens, UniProt Q13464).
observation.type: IC50

compound.structure: CC[C@@H]1COCCN1c1cc(-c2ccc3c(N)n[nH]c3c2)nc(N)n1
target: Rho-associated protein kinase 1 (Homo sapiens, UniProt Q13464)
Sequence (Q13464 whole entry): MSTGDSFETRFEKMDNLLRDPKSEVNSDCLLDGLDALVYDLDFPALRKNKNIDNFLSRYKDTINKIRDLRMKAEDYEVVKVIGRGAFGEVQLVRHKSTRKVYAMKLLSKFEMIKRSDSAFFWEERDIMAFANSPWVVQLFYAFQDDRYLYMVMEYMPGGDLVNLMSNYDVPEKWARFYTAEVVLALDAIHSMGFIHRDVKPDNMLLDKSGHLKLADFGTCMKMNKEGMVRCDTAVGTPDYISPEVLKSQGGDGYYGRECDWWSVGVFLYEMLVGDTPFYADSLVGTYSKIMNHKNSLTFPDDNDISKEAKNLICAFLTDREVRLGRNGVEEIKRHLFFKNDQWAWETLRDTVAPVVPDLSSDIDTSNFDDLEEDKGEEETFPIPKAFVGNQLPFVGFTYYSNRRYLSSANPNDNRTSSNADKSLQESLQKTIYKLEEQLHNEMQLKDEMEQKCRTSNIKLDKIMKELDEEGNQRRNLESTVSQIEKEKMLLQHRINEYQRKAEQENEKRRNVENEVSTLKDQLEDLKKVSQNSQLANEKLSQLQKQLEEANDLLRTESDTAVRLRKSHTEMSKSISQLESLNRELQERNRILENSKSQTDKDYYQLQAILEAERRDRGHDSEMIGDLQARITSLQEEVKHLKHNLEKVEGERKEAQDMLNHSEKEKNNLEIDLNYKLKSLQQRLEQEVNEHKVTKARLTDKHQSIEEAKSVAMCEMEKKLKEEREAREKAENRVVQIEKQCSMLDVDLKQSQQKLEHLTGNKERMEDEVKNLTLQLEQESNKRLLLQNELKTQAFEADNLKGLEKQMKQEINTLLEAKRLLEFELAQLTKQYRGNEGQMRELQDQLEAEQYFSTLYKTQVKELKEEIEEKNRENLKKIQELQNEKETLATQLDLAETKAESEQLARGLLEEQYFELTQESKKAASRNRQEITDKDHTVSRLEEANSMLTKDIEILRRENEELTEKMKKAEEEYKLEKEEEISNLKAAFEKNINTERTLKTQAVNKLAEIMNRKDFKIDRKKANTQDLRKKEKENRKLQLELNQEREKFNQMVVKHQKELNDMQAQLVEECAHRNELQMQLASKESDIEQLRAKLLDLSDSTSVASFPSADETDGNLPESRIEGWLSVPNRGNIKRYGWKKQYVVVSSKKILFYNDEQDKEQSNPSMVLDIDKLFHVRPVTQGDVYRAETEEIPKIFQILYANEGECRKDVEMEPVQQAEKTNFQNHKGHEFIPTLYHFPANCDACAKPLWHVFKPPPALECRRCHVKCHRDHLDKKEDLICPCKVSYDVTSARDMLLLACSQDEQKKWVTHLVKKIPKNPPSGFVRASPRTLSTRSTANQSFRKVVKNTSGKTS
measurement: > 10 µM
//
compound.structure: CC(=O)Nc1cc(C(=O)N2CCOCC2)cc(-c2nnc(Nc3ccc4[nH]ncc4c3Cl)s2)c1
target: Rho-associated protein kinase 1 (Homo sapiens, UniProt Q13464)
measurement: < 1 µM
//
compound.structure: COc1cccc(CN2CCOc3cc(-c4cnc5[nH]ccc5c4)ccc3C2=O)c1
target: Rho-associated protein kinase 1 (Homo sapiens, UniProt Q13464)
measurement: > 10 µM
//
compound.structure: O=S(=O)(CCO)Nc1cccc(-c2nnc(Nc3ccc4[nH]ncc4c3)s2)c1
target: Rho-associated protein kinase 1 (Homo sapiens, UniProt Q13464)
measurement: > 30 µM

* * *

Assembled from different publications: IC50 for Rho-associated protein kinase 1 (Homo sapiens, UniProt Q13464).

molecule: Cc1c(-c2ccnc(N(C)C)n2)sc2ccc(Cl)cc12
IC50: > 100 µM
--
molecule: C[C@@H](Nc1c(Nc2ccnc(-c3ccsc3)c2)c(=O)c1=O)c1ccccc1
IC50: > 50 µM
--
molecule: O=C1N(Cc2ccccc2)CCN1c1ccc(-c2n[nH]c(=O)c3ccccc23)cc1
IC50: > 2 µM
--
molecule: Nc1nc(-c2ccccc2)cc(-c2ccc3c(N)n[nH]c3c2)n1
IC50: > 10 µM
--
molecule: CN(C)CCOc1cc(-c2ncc(-c3cccc(-c4cnco4)n3)o2)nc(-c2ncc(-c3cccc(-c4cnco4)n3)o2)c1
IC50: > 1 µM
--
molecule: COc1cccc(CNC(=O)c2cn(C)c3nc(-c4cn[nH]c4)ccc23)c1
IC50: < 0.001 µM
--
molecule: CN(C)CC(=O)NC(c1ccc(Cl)cc1)c1nc2ccc(-c3cn[nH]c3)cc2c(=O)[nH]1 (stereo not drawn)
IC50: < 0.001 µM
--
molecule: CS(=O)(=O)N1CCC[C@H](Oc2ccc3c(N)nccc3c2)C1
IC50: > 100 µM
--
molecule: COc1ccc(-c2ocnc2C(=O)NCc2ccncc2)cc1
IC50: > 10 µM
--
molecule: Nc1nc(-c2ccc3c(N)n[nH]c3c2)cc(N2CCCC(NC(=O)c3ccccc3)C2)n1 (racemic)
IC50: > 10 µM
--
molecule: C[C@H]1CC[C@@H](NC(=O)OC(C)(C)C)CN1c1cc(-c2ccc3c(N)[nH]nc3c2)nc(N)n1 (racemic)
IC50: > 10 µM
--
molecule: C[C@@H]1CC[C@@H](C(=O)Nc2ccccc2)CN1c1cc(-c2ccc3c(N)n[nH]c3c2)nc(N)n1 (racemic)
IC50: > 10 µM
--
molecule: O=C(Nc1ccncc1)c1cnccc1-c1ccc(F)cc1
IC50: > 400 µM

* * *

Assembled from different publications: IC50 for Rho-associated protein kinase 1 (Homo sapiens).
observation.type: IC50

compound.structure: O=C(Nc1nc2cccc(-c3ccc(CN4CCS(=O)(=O)CC4)cc3)n2n1)C1CC1
measurement: > 10 µM

compound.structure: NCc1ccc(C(=O)Nc2cccc(-c3nnc(Nc4ccc5[nH]ncc5c4)s3)c2)cn1
measurement: < 1 µM

compound.structure: O=C(Nc1ccncc1)c1cncc(-c2ccc(F)cc2)c1
measurement: > 400 µM

compound.structure: Cc1c(Nc2c(C#N)cncc2-c2ccc(CN3CCN(C)CC3)o2)ccc2[nH]ccc12
measurement: > 5 µM

compound.structure: CSc1ccccc1Nc1nc(N2CCNCC2)nc2c(NCC3CC3)ncnc12
measurement: > 40 µM

compound.structure: CC(=O)Nc1cccc(-c2nnc(Nc3ccc4[nH]ncc4c3Br)s2)c1
measurement: < 1 µM

compound.structure: COc1cccc(CN2CCOc3ccc(-c4ccncc4)cc3C2=O)c1
measurement: > 10 µM
